target: Diaphorase; assay: peptide array, 10 uM labeled diaphorase, no FAD
Form field: fluorescence (one value per entry).

{"binder": "FQFGKVVSDGSG", "fluorescence": 12700}
{"binder": "RWYKNGGSG", "fluorescence": 64800}
{"binder": "VERASYNLDGSG", "fluorescence": 2900}
{"binder": "YRFQSGLPAKDGSG", "fluorescence": 50300}
{"binder": "RLQYLFKSDGSG", "fluorescence": 64300}
{"binder": "VVQALFDGSG", "fluorescence": 9480}
{"binder": "YSVDYWYQVDGSG", "fluorescence": 19800}
{"binder": "EDEGLSKFEGGSG", "fluorescence": 1220}
{"binder": "LAKQNRVEDGSG", "fluorescence": 2950}
{"binder": "YVWGLELSGGSG", "fluorescence": 17300}
{"binder": "WLDLGVFPYQHLGSG", "fluorescence": 25700}
{"binder": "RFGQNLPLGGSG", "fluorescence": 63500}
{"binder": "RPLQVQRGGS", "fluorescence": 53200}
{"binder": "FGKLYQLYNDGSG", "fluorescence": 15700}
{"binder": "LDRLGEYQFSGSG", "fluorescence": 3000}
{"binder": "AQVAVDGFYVDGSG", "fluorescence": 12600}
